- TARGET OR SYSTEM: Ba/F3-Tel-KDR cells (Homo sapiens)
- Construct: fused on or other part: N-terminal oligomerising part of TEL (ETV6) fused to the tyrosine kinase domain of KDR; P41212 (Transcription factor ETV6)
- Sequence (P35968 whole entry, change not shown, the tested form may be a part): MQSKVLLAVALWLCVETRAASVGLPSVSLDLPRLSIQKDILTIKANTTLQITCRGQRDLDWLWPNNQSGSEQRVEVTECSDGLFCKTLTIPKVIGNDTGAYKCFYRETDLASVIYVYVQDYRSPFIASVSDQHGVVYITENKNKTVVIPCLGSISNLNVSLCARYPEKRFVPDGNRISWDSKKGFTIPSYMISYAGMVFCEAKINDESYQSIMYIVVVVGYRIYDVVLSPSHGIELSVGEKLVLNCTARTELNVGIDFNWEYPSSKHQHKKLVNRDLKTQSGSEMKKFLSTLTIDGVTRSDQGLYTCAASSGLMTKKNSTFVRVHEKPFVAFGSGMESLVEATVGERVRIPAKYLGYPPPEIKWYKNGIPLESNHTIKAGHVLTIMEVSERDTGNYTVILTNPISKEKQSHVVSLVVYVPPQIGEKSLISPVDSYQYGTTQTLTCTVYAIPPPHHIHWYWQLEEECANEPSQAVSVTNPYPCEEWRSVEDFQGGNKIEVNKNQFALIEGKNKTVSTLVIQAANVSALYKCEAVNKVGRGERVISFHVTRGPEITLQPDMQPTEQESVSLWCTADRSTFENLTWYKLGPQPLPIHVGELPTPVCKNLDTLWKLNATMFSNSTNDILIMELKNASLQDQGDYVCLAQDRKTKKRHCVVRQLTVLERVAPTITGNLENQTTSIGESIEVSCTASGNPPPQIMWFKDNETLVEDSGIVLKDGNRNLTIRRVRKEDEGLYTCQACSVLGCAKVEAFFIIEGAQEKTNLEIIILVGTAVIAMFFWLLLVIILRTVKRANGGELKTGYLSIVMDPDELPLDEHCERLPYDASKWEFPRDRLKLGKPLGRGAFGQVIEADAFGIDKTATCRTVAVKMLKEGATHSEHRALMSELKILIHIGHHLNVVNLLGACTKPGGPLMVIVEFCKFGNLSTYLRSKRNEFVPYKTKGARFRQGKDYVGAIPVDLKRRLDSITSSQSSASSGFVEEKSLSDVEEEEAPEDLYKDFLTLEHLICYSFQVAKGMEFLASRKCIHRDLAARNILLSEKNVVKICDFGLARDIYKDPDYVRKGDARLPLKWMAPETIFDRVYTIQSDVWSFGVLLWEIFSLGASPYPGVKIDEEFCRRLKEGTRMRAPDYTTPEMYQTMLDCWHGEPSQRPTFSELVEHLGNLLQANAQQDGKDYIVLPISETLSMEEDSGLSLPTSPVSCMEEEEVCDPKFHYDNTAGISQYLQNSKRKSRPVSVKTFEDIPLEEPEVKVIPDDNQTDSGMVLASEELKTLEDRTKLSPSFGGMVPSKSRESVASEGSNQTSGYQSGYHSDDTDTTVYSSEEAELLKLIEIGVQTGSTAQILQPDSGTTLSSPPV
- ASSAY TEXT: Ba/F3-Tel-KDR cell viability inhibition assay (CellTiter-Glo)
- Type: cell-based
- DETAILS: 48 hour incubation, read-out: IC50 (the source's name)
Listed below: GI50 values for each entry.
The reply should be a number in nM, with the unit left off.

Response field GI50 (Ba/F3-Tel-KDR cells (Homo sapiens)) for item CNCc1cc(Oc2ccc3c(ccn3C(=O)Nc3cc(C(C)(C)C)[nH]n3)c2)ncn1 : 4

Response field GI50 (Ba/F3-Tel-KDR cells (Homo sapiens)) for item CS(=O)(=O)N1CCc2c(ncnc2Oc2ccc3c(ccn3C(=O)Nc3cccc(C(F)(F)F)c3)c2)C1 : 13

Response field GI50 (Ba/F3-Tel-KDR cells (Homo sapiens)) for item O=C(Nc1ccc(F)c(C(F)(F)F)c1)n1ccc2cc(Oc3cc(CNC4CC4)ncn3)ccc21 : 23

Response field GI50 (Ba/F3-Tel-KDR cells (Homo sapiens)) for item O=C(Nc1cccc(C(F)(F)F)c1)n1ccc2cc(Oc3ncnc4c3CN(CCO)C4)ccc21 : 8

====

- TARGET OR SYSTEM: Ba/F3-Tel-KDR cells (Homo sapiens)
- Construct: fused on or other part: N-terminal oligomerising part of TEL (ETV6) fused to the tyrosine kinase domain of KDR; P41212 (Transcription factor ETV6)
- ASSAY TEXT: Ba/F3-Tel-KDR cell viability inhibition assay (CellTiter-Glo)
- Type: cell-based
- DETAILS: 48 hour incubation, read-out: IC50 (the source's name)
Listed below: GI50 values for each entry.
The reply should be a number in nM, with the unit left off.

Record summary for CC(C)Cc1cc(NC(=O)n2ccc3cc(Oc4ncnc5c4CNC5)ccc32)no1 [Example 57-N] : reported GI50 = 91

Record summary for O=C(Nc1ccc(F)c(C(F)(F)F)c1)n1ccc2cc(Oc3cc(Cn4ncnn4)ncn3)ccc21 [Example 27-A] : reported GI50 = 5

Record summary for CCn1nc(NC(=O)n2ccc3cc(Oc4cc(CNC)ncn4)ccc32)cc1C1CC1 [Example 137-AA] : reported GI50 = 2

Record summary for CNCc1cc(Oc2ccc3c(ccn3C(=O)Nc3cc(C4CC4)n(C)n3)c2)ncn1 [Example 137-N] : reported GI50 = 14

====

- TARGET OR SYSTEM: Ba/F3-Tel-KDR cells (Homo sapiens)
- Construct: fused on or other part: N-terminal oligomerising part of TEL (ETV6) fused to the tyrosine kinase domain of KDR; P41212 (Transcription factor ETV6)
- ASSAY TEXT: Ba/F3-Tel-KDR cell viability inhibition assay (CellTiter-Glo)
- Format: cell-based
- DETAILS: 48 hour incubation, read-out: IC50 (the source's name)
RECORDED ENDPOINT: log10 GI50 (log10 of the value in nM)
All values: base-10 log of GI50 in nM.

// known answers, use as guide
>>> readout_value("C[C@H]1Cc2c(ncnc2Oc2ccc3c(ccn3C(=O)Nc3ccn(C(C)(C)C)n3)c2)CN1 [Example 54-V]")
1.80
>>> readout_value("O=C(Nc1cccc(C(F)(F)F)c1)n1ccc2cc(Oc3ccnc(CCN4CCOCC4)n3)ccc21 [Example 73-D]")
0.95
>>> readout_value("CC(=O)N1Cc2ncnc(Oc3ccc4c(ccn4C(=O)Nc4cc(C5(C)CC5)on4)c3)c2C1 [Example 135-AS]")
1.00
>>> readout_value("CNC(=O)c1cc(Oc2ccc3c(ccn3C(=O)Nc3cccc(C(F)(F)F)c3)c2)ccn1 [Example 28-B]")
1.04
>>> readout_value("CNCc1cc(Oc2ccc3c(ccn3C(=O)Nc3cc(C(F)(F)F)n(C)n3)c2)ccn1 [Example 149-F]")
0.78
>>> readout_value("CNCc1cc(Oc2ccc3c(ccn3C(=O)Nc3cc(C(F)(F)F)[nH]n3)c2F)ncn1 [Example 59-C]")
2.06
>>> readout_value("CNCc1cc(Oc2ccc3c(cc(C)n3C(=O)Nc3cccc(C(F)(F)F)c3)c2F)ncn1 [Example 19-AP]")
2.63
>>> readout_value("CC(C)(CO)c1cc(NC(=O)n2ccc3cc(Oc4ncnc5c4CCNC5)ccc32)[nH]n1 [Example 49-B]")
1.34

Record summary for CCN1Cc2ncnc(Oc3ccc4c(ccn4C(=O)Nc4cc5n(n4)CCC5(C)C)c3)c2C[C@@H]1C [Example 136-I] : reported log10 GI50 = 0.00
